TGT: AII receptor (Oryctolagus cuniculus)
Construct: A portion of rabbit aorta was excised to prepare a spiral strip specimen; from tissue; host or cells: excised rabbit aorta, spiral strip
Sequence (P34976 whole entry): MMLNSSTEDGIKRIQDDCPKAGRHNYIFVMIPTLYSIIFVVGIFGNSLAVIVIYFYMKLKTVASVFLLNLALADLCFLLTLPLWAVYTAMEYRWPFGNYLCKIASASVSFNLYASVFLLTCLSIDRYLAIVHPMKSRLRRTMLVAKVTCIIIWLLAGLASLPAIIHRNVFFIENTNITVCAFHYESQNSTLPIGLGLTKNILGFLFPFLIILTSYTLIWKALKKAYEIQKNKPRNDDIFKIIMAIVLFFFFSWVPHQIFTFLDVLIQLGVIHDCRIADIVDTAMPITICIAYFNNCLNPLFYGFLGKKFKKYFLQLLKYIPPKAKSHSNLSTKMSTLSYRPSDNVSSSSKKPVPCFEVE
TEST_NAME: in vitro: antagonistic effect on AII contraction of an excised rabbit aorta (spiral strip)
Format: cell-based
CONDITION_SUMMARY: negative log of concentration required to shift AII dose-response curve to two times higher concentration, read-out: in vitro (pA2 value) (converted)
Structures can show the parent of a compound that is named as a salt.

MOLECULE: CCOC(=O)c1c(CC)c2nc(CC)nn2n1Cc1ccc(-c2ccccc2-c2nnn[nH]2)cc1
TGT: AII receptor (Oryctolagus cuniculus)
Kb, nM: 0.562
//
MOLECULE: CCc1nc2c(CC)c(C=O)n(Cc3ccc(-c4ccccc4-c4nn[nH]n4)cc3)n2n1
TGT: AII receptor (Oryctolagus cuniculus)
Kb, nM: 0.692
//
MOLECULE: CCc1cn(Cc2ccc(-c3ccccc3-c3nnn[nH]3)cc2)n2nc(C)nc12
TGT: AII receptor (Oryctolagus cuniculus)
Kb, nM: 3.16
//
MOLECULE: CCc1nc2c(CC)cn(Cc3ccc(-c4ccccc4-c4nn[nH]n4)cc3)n2n1 [Example 100, potassium salt]
TGT: AII receptor (Oryctolagus cuniculus)
Kb, nM: 1.55
